The reported measurements were obtained from patent US12110286B2.

biological target: Trx-6×His-BCL6 (human BCL6 BTB domain covering amino-acid sequence 5-129) (Homo sapiens (Human), UniProt P41182); test: HTRF in vitro assay (BCL6 / BCOR-AF633 peptide); assay type: binding; settings: further generated data; 1 nM Trx-6×His-BCL6, 300 nM BCOR-AF633 peptide, 0.5 nM anti-6×His-Terbium cryptate
Could you please report measured HTRF pIC50 for the items listed next?
Response field accepts a number only; no unit should be typed.

Could you share which HTRF pIC50 value was measured for Cn1c(=O)n(CCC(C)(C)O)c2cc(Nc3nc(N4CCCC(CN5CCOCC5)C4)ncc3Cl)ccc21 (stereo not drawn) [Example 42d] ?
6.54

Also CC1CN(c2ncc(Cl)c(Nc3ccc4c(c3)n(CCC(C)(C)O)c(=O)n4C)n2)CCC1(F)F (stereo not drawn) [Example 35c] , if possible.
6.53

What would you report for CN1CC(C)(CCn2c(=O)n(C)c3ccc(Nc4ccnc(Cl)c4C#N)cc32)OC1=O (stereo not drawn) [Example 33] ?
5.43

Repeat for the following compound: Cn1c(=O)n(CCC(C)(C)O)c2cc(Nc3nc(N4CCC(C#N)CC4)ncc3Cl)ccc21 [Example 42a]
6.60

Same thing, different compound: CCC(=O)CCn1c(=O)n(C)c2ccc(Nc3ccnc(Cl)c3C#N)cc21 [Example 19a]
5.83

Another compound to look at: C[C@@H]1CN(c2ncc(Cl)c(Nc3ccc4c(c3)n(CCC(C)(C)O)c(=O)n4CCN(C)C)n2)C[C@H](C)C1(F)F [Example 37a]
6.53

Continue with C[C@@H](O)CCn1c(=O)n(C)c2ccc(Nc3ccnc(Cl)c3Cl)cc21 [Example 1q]
5.45

Another: C[C@@H]1C[C@H](C)CN(c2ncc(Cl)c(Nc3cc4c(cc3F)n(C)c(=O)n4CCC(C)(C)O)n2)C1.O=CO [Example 20q]
5.87

And Cn1c(=O)n(C[C@@H]2CCCN2CC(F)(F)F)c2cc(Nc3nc(N4CC(C)(C)OC(C)(C)C4)ncc3Cl)ccc21 [Example 35i] ?
6.01

Also need CNC(=O)c1cc(Nc2ccc3c(c2)[nH]c(=O)n3C)c(C#N)c(Cl)n1 [Example 1f] , thanks.
5.59

Cool, now CCC1(Cn2c(=O)n(C)c3ccc(Nc4nc(N5C[C@@H](C)O[C@@H](C)C5)ncc4Cl)cc32)CNC(=O)O1 (stereo partly drawn) [Example 20n]
6.42

Entry to check: Cn1ncc2c1CN(c1ncc(Cl)c(Nc3ccc4c(c3)n(CCC(C)(C)O)c(=O)n4C)n1)CC2 [Example 42f]
6.58

Next record, please: Cn1c(=O)n(CCC(C)(C)O)c2cc(Nc3nc(N4CC5CC(C4)C5(F)F)ncc3Cl)ccc21 [Example 35w]
5.74

What do you get for Cn1c(=O)n(CCC(C)(C)O)c2cc(Nc3nc(-n4ccc(C(F)(F)F)n4)ncc3Cl)c(F)cc21 [Example 20r] ?
6.53

Queued: Cn1c(=O)n(C[C@@H]2CCCN2CCO)c2cc(Nc3ccnc(Cl)c3C#N)ccc21 [Example 25g]
5.34

* * *

For each record, write down the corresponding HTRF pIC50.
biological target: Trx-6×His-BCL6 (human BCL6 BTB domain covering amino-acid sequence 5-129) (Homo sapiens (Human)); assay: HTRF in vitro assay (BCL6 / BCOR-AF633 peptide); format: binding; conditions: further generated data; 1 nM Trx-6×His-BCL6, 300 nM BCOR-AF633 peptide, 0.5 nM anti-6×His-Terbium cryptate
Number only, please.

What does the record list as HTRF pIC50 for CCOC(=O)c1cc(Nc2ccc3c(c2)n(CC[C@@H](C)O)c(=O)n3C)n2nccc2n1 ?
5.48

Continue with Cn1c(=O)n(CCC(C)(C)O)c2cc(Nc3nc(N4CC(C(F)(F)F)OC(C)(C)C4)ncc3Cl)ccc21 (stereo not drawn) [Example 20k]
6.11

# iterate: COC(=O)C(CCn1c(=O)n(C)c2ccc(Nc3ccnc(Cl)c3C#N)cc21)OCC1CC1 (stereo not drawn) [Example 10e]
5.38

One more molecule: Cn1c(=O)n(CCC(C)(C)O)c2cc(Nc3nc(N4CCC5(CC4)CC(F)(F)C5)ncc3Cl)ccc21 [Example 35f]
6.05

Do the same for Cn1c(=O)n(CCC(C)(C)O)c2cc(Nc3nc(N4CCOC(C(F)(F)F)C4)ncc3Cl)ccc21 (stereo not drawn) [Example 28b] please
6.55

Repeat for the following molecule: C[C@@H]1C[C@H](C)CN(C(=O)c2cc(Nc3ccc4c(c3)n(CCC(C)(C)O)c(=O)n4C)c(Cl)cn2)C1 [Example 36e]
6.22

Follow-up item: Cc1cc(-c2ncc(Cl)c(Nc3ccc4c(c3)n(CCC(C)(C)O)c(=O)n4C)n2)n(C)n1 [Example 23b]
6.05

Also check CCC1(Cn2c(=O)n(C)c3ccc(Nc4ccnc(Cl)c4C#N)cc32)CNC(=O)O1 (stereo not drawn) [Example 22c]
5.76

// next record COC(Cn1c(=O)n(CCC(C)(C)O)c2cc(Nc3nc(N4C[C@@H](C)C(F)(F)[C@@H](C)C4)ncc3Cl)ccc21)OC [Example 41a]
6.06

Also need CC(C)(O)CCn1c(=O)n(CCC(C)(C)O)c2ncc(Nc3nc(N4CC(C)(C)OC(C)(C)C4)ncc3Cl)cc21 [Example 35q] , thanks.
6.63

Try the molecule C[C@@H]1CN(c2ncc(Cl)c(Nc3ccc4c(c3)n(CCC(C)(C)O)c(=O)n4CCO)n2)C[C@H](C)C1(F)F [Example 40a]
6.49

Also check CNC(=O)c1cc(Nc2ccc3c(c2)n(CCC(C)(C)O)c(=O)n3CC2CCOCC2)c(C#N)c(Cl)n1
5.95

// next record COC(=O)[C@H](N)CCn1c(=O)n(C)c2ccc(Nc3ccnc(Cl)c3C#N)cc21
5.68

Now the molecule Cc1cc(C)n(-c2ncc(Cl)c(Nc3ccc4c(c3)n(CCC(C)(C)O)c(=O)n4C)n2)n1 [Example 15a]
6.61

Can you handle Cn1c(=O)n(CCC2(O)CCC2)c2cc(Nc3ccnc(Cl)c3C#N)ccc21 [Example 18a] next?
5.90

* * *

target: Trx-6×His-BCL6 (human BCL6 BTB domain covering amino-acid sequence 5-129) (Homo sapiens (Human), UniProt P41182); assay: HTRF in vitro assay (BCL6 / BCOR-AF633 peptide); type: binding; conditions: initially generated data; 10 nM Trx-6×His-BCL6, 300 nM BCOR-AF633 peptide, 1 nM anti-6×His-Terbium cryptate
ENDPOINT: HTRF pIC50
Just the number.

Which measured HTRF pIC50 value corresponds to C[C@@H](O)CCn1c(=O)n(C)c2ccc(Nc3cc(C(=O)O)nc(Cl)c3C#N)cc21 [Example 1e] ?
6.01

Also, CNC(=O)c1cc(Nc2ccc3c(c2)[nH]c(=O)n3C)c(C#N)c(Cl)n1 [Example 1f] please.
5.84

Quick one: COC(=O)C(C)CCn1c(=O)n(C)c2ccc(Nc3cc(-c4nc(C)no4)nc(Cl)c3C#N)cc21 (stereo not shown) [Example 5]
5.99

One more compound: Cn1c(=O)n(CC(O)C(C)(C)O)c2cc(Nc3ccnc(Cl)c3C#N)ccc21 (stereo not shown) [Example 10a]
5.81

* * *

What HTRF pIC50 was measured for each of the following?
target: Trx-6×His-BCL6 (human BCL6 BTB domain covering amino-acid sequence 5-129) (Homo sapiens (Human)); assay: HTRF in vitro assay (BCL6 / BCOR-AF633 peptide); type: binding; conditions: further generated data; 1 nM Trx-6×His-BCL6, 300 nM BCOR-AF633 peptide, 0.5 nM anti-6×His-Terbium cryptate
Could you respond with only the numeric value?

// query HTRF pIC50 value for entry Cn1c(=O)n(CCC(C)(C)O)c2cc(Nc3nc(OCC(F)(F)F)ncc3Cl)ccc21 [Example 39a]
6.09

What do you get for CCOC(=O)c1cc(Nc2ccc3c(c2)n(CC(O)CC)c(=O)n3C)n2ncc(F)c2n1 (stereo not shown) [Example 1r] ?
5.91

What about Cn1c(=O)n(CC2CCN2C(=O)OC(C)(C)C)c2cc(Nc3ccnc(Cl)c3C#N)ccc21 (stereo not shown) [Example 19d] ?
5.44

And then Cc1cc(C)n(-c2ncc(Br)c(Nc3ccc4c(c3)n(CCC(C)(C)O)c(=O)n4C)n2)n1 [Example 15q] , what is it?
6.09

Next record, please: Cn1c(=O)n(CCC(C)(C)O)c2cc(Nc3ccncc3Cl)ccc21 [Example 29e]
5.93

Subsequent entry: Cc1nc(C)c(-c2ncc(Cl)c(Nc3ccc4c(c3)n(CCC(C)(C)O)c(=O)n4C)n2)s1 [Example 23c]
5.99

# iterate: Cc1cc(C)n(-c2ncc(Cl)c(Nc3ccc4c(c3)n(CCC(C)(O)CCO)c(=O)n4C)n2)n1 (stereo not shown) [Example 15e]
6.02

Can you handle CCC1(Cn2c(=O)n(C)c3ccc(Nc4nc(-n5ccc(C(F)(F)F)n5)ncc4Cl)cc32)CN(C)C(=O)O1 (stereo not shown) [Example 20m] next?
5.97

Please answer likewise for COC(=O)C(C)CCn1c(=O)n(C)c2ccc(Nc3cc(C(=O)O)nc(Cl)c3C#N)cc21 (stereo not shown) [Example 3a]
5.93

Can you handle CCNC(C)CCn1c(=O)n(C)c2ccc(Nc3ccnc(Cl)c3C#N)cc21.Cl (stereo not shown) [Example 26a] next?
5.41

Now give it for CC[C@]1(O)CCC[C@H]1Cn1c(=O)n(C)c2ccc(Nc3ccnc(Cl)c3C#N)cc21 [Example 22m] too.
5.52

Then CCC(C)(O)CCn1c(=O)n(C)c2ccc(Nc3ccnc(Cl)c3C#N)cc21 (stereo not shown) [Example 27c] ?
5.93

Further, for Cn1c(=O)n(C[C@@H]2CCCN2CC(F)F)c2cc(Nc3ccnc(Cl)c3C#N)ccc21 [Example 25i] ?
5.71

What do we get for CCC(C)(O)CCn1c(=O)n(C)c2ccc(Nc3nc(-n4nc(C)cc4C)ncc3Cl)cc21 (stereo not shown) [Example 15f] ?
6.00

Also CN(C)C(=O)C1CCN(c2cc(Nc3ccc4c(c3)n(CCC(C)(C)O)c(=O)n4C)c(Cl)cn2)CC1 [Example 36c] , if possible.
5.88

Also COC(=O)C(CCn1c(=O)n(C)c2ccc(Nc3ccnc(Cl)c3C#N)cc21)OC (stereo not shown) [Example 10b] , if possible.
5.57
